# System: P. falciparum 3D7 growth, pLDH absorbance
# measurement-description: blood-stage malaria parasite growth potency – strain 3D7, dose response (AID 2305)
Listed below: IC50 values for each entry.
observation-type: IC50

- O=C(Nc1cccc(CN2CCCN(Cc3ccc4c(c3)OCO4)CC2)c1)c1ccc(Cl)c(Cl)c1: 890 nM
- NC(=O)c1cc(-c2ccccc2)cc2c(C3CCC(NCc4ccccc4)C3)c[nH]c12 (centres undefined): 910 nM
- COc1cc(Nc2ncc3c(C)nc(-c4cc5ccccc5[nH]4)n3n2)cc(OC)c1OC: 1020 nM
- CO/C(=C\C=C\c1cc2cc(Cl)c(Cl)cc2[nH]1)C(=O)NCCCN1CCN(c2cccc(OCC(=O)Nc3cccc(C(=O)c4ccccc4)c3)c2)CC1: 690 nM
- CCCCCCN(C(=O)OCc1ccccc1)[C@@H]1CCN(C(=O)OC(C)(C)C)C[C@H]1C(=O)OCC: 370 nM
- O=C1COC2(CN1CC1CCN(Cc3ccc(O)c(Cl)c3)C1)c1ccccc1-c1ccccc12 (centres undefined): 1060 nM
- CCCN1CC[C@@H](CCCc2ccnc3ccc(O)cc23)[C@@H](CC)C1: 890 nM
- O=c1cnc2ccc(F)cc2n1CCN1CCC(NCc2cc(-c3ccccc3)cs2)CC1: 860 nM
- CCOc1cc(C(=O)NC2CC(C)(C)N(C)C(C)(C)C2)ccc1-c1nc2cc(Cl)c(Cl)cc2[nH]1: 860 nM

* * *

Entries and their log10 IC50
# System: P. falciparum 3D7 growth, pLDH absorbance
# measurement-description: blood-stage malaria parasite growth potency – strain 3D7, dose response (AID 2305)
observation-type: log10 IC50 (log10 of the value in µM)

* O=C(NC1CCN(Cc2ccccc2)CC1)c1cccc(Nc2nc(-c3ccccc3)cs2)c1 | 0.01
* Cc1ccccc1Nc1nc(NCCc2ccccc2)nc2ccccc12 | 0.10
* O=C(O)CCSc1ncnc2nc[nH]c12 | -0.89
* COC1CCC(C(=O)Nc2ccc(-c3cccc(-c4nc5c(C)cccc5[nH]4)c3)cc2)CC1 (stereo unspecified) | -0.24
* CCCCNC(=O)[C@H](CC1CCCCC1)NC(=O)c1ccc(O)c(-c2cccc(C(F)(F)F)c2)c1 | -0.11
* COc1ccc(Nc2nc(C)cc(NC3CCCC3)n2)cc1 | -0.06
* CC(=O)c1ccc(NC(=O)Nc2ccc(N(C)c3ccnc(Nc4cccc(CS(C)(=O)=O)c4)n3)cc2)cc1 | -0.92
* COc1ccc(NC(=O)C2c3ccccc3C(=O)N(C3CCCC3)C2c2cccs2)cc1 (stereo unspecified) | 0.23
* COc1ccc(CNCc2ccc(-c3ccc(-c4nc5c(C)cccc5[nH]4)cc3)cc2)cc1 | -0.47
* Cc1cc(NCCc2ccc(O)cc2)nc(NCC(c2ccccc2)c2ccccc2)n1 | -0.49
* CCCCCCCn1c(=N)n(CC(O)c2ccc(Cl)c(Cl)c2)c2ccccc21 (stereo unspecified) | -0.11
* O=C(Cc1cccc2ccccc12)NC1CCN(c2ccnc3cc(Cl)ccc23)C1 (stereo unspecified) | -0.60
* O=C(Cn1c(CCc2cccc(F)c2F)nc(=O)c2ccccc21)N(CCCN1CCCC1)Cc1ccc(-c2ccc(C(F)(F)F)cc2)cc1 | -0.03
* Cc1cc(=O)c(C2CCC(c3ccc(Cl)cc3)CC2)c(C)[nH]1 (stereo unspecified) | -0.13
* Cc1nc(N)nc(N)c1-c1ccc2ccccc2c1 | -0.06
* Cc1ccc2c(NN=Cc3cccc([N+](=O)[O-])c3)cc(C)nc2c1 | -0.57
* OCC1CCN(Cc2cccc(C#Cc3cc4ncnc(Nc5ccc(OCc6cccc(F)c6)c(Cl)c5)c4s3)n2)CC1 | -0.26
* O=C(Nc1ccc(N2CCCCC2)c(Cl)c1)c1ncn[nH]1 | -0.35
* CCCc1cc2c3c(N)nc(N)nc3ccc2n1CC | -1.30
* C/C=C1/CN2CC[C@H]1C[C@H]2[C@H](O)c1ccnc2ccc(OC)cc12 | -0.70
* Cc1ccc(N2CCc3c(-c4cc5cccnc5nc4C)cc(C)nc32)c(Cl)c1 | -0.24
* CN(C)CCC(=O)c1ccccc1 | -0.48
* COc1ccc(CCN(C)CCCCNC(=O)c2ccc(NC(=O)c3ccc(Cl)cc3)cc2)c(OC)c1 | -0.04
* COc1cc(Nc2ccnc3cc(-c4ccccn4)ccc23)cc(OC)c1OC | -0.04
* Cc1cc(N[C@@H](Cc2ccccc2)C(=O)NC2CCCC2)nc(NCc2ccccc2C)n1 | 0.09
* Cn1cncc1-c1ccc2c(-c3ccsc3)cnc(N)c2c1 | -0.07
* CN1CCCC1CCNCc1cccc(-c2cnc(N(C)C3CCCCC3)nc2)c1 (stereo unspecified) | -0.07
* Cc1ccc(O)cc1Nc1ccnc2ccc(C(C)(C)C)cc12 | 0.10
* CCN(CC)CCN(Cc1ccc(-c2ccc(Br)cc2)cc1)C(=O)Cn1c(CCc2cccc(F)c2F)nc(=O)c2ccccc21 | -0.10
* Oc1ccc(-c2ccccc2)cc1CN1CCCCC1 | -0.05
* Cc1ccc(-c2noc(=O)n2CC(=O)Nc2ccccc2-c2ccccc2)cc1 | -0.09
* O=C(NC1CC1)c1ccc(N2CCC(c3ccccc3)CC2)nc1 | 0.05
* O=c1cc(NCCCCNCc2ccc(Br)c(Br)c2)[nH]c2ccccc12 | -0.07
* COc1ccc(Nc2nc(NC3CCN(Cc4ccccc4)CC3)cc(-c3ccncc3)n2)cc1 | 0.00
* CCCN1CCN(CCCNC(=O)c2cc3c(Cl)nc4ccc(C)cc4c3s2)CC1 | -0.10
* O=C(Nc1ccc(-c2csc(-c3nc4ccccc4[nH]3)c2)cc1)Nc1ccc(F)c(F)c1F | -0.48
* COc1ccc2ncc(F)c(CCN3CCC(NCc4cc5c(cn4)OCCS5)CC3)c2c1 | -0.11
* CCN(CC)CC(O)c1cc(-c2ccc(C)cc2)nc2c(C)cc(C)cc12 (stereo unspecified) | -0.77
* Clc1ccc(-c2[nH]c3ccccc3c2CN2CCC(N3CCCCC3)CC2)cc1 | 0.03
* CN1CCC(c2csc3ccc(NC(=O)Nc4ccc(-c5ccncc5)c5ccccc45)cc23)CC1 | 0.01
* CCN(CC)CCCC(C)Nc1cc(C=Cc2ccccc2Cl)nc2cc(Cl)ccc12 (stereo unspecified) | -0.10

This collection of values is drawn from PubChem BioAssay AID2305.
